The measured values listed here are drawn from ChEMBL document CHEMBL4706530.

TARGET: Prostaglandin G/H synthase 1 (Ovis aries)
Sequence (P05979 whole entry): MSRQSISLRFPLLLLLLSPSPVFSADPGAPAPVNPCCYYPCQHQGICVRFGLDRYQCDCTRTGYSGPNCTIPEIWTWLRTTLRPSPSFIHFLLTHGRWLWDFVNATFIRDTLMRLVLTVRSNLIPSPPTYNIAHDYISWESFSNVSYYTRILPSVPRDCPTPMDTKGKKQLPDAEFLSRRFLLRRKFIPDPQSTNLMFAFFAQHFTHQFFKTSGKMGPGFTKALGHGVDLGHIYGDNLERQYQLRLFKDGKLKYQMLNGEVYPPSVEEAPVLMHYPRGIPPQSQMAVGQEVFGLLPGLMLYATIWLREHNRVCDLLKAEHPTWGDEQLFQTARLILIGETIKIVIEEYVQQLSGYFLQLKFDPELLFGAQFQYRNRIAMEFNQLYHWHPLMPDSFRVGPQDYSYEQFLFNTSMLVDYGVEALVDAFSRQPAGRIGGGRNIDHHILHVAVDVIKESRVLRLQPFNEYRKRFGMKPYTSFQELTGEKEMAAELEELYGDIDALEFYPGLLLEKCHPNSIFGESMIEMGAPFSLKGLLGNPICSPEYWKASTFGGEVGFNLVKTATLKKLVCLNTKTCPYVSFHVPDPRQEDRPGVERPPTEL
TEST: Inhibition of ovine COX-1 assessed as reduction in PGE2 level using 10 uM arachidonic acid as substrate preincubated with enzyme for 5 mins followed by substrate addition and measured after 20 mins by ELISA
QUANTITY: IC50 (µM)

Name the recorded IC50 for "CCCCCCCCCCCC1=CC(=O)C=C(OC)C1=O" .
1.07

Name the recorded IC50 for "CCCCCCCCCCCCCCCc1cc(O)cc(OC)c1O" .
2.65

(1) COC1=CC(=O)C=C(Br)C1=O
(2) COc1cc(O)cc(Br)c1O
1 or 2 : whose IC50 is greater? I would appreciate it if you answered with the label of your choice.
1

====

TARGET: Prostaglandin G/H synthase 2 (Homo sapiens, UniProt P35354)
Sequence (P35354 whole entry): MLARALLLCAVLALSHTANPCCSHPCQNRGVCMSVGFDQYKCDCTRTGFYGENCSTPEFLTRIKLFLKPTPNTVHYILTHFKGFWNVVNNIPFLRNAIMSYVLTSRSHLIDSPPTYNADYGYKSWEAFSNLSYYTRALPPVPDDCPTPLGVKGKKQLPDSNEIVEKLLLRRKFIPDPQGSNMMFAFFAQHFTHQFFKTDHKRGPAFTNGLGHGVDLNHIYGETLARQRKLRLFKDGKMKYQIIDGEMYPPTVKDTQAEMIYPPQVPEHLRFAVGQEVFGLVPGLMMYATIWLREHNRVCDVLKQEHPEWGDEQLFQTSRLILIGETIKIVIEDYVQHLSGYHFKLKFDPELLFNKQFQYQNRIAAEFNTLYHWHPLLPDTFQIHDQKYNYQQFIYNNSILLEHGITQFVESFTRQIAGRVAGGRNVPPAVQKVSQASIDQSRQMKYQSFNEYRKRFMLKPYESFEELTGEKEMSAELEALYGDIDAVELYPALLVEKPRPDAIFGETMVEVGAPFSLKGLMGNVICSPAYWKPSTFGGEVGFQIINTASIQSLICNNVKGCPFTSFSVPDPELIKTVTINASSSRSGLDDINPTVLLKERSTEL
TEST: Inhibition of human recombinant COX-2 assessed as reduction in PGE2 level using 10 uM arachidonic acid as substrate preincubated with enzyme for 5 mins followed by substrate addition and measured after 20 mins by ELISA
QUANTITY: IC50 (nM)

Answered examples (3):
Missing value: IC50, Prostaglandin G/H synthase 2 (Homo sapiens, UniProt P35354), entry "CCCCCCCCCCCCCCCc1cc(O)cc(O)c1" . Fill in?
2360

Request: IC50, test system Prostaglandin G/H synthase 2 (Homo sapiens, UniProt P35354), entry "CCCCCCCCCCCCCCCc1cc(O)cc(OC)c1O"
2710

Give Prostaglandin G/H synthase 2 (Homo sapiens, UniProt P35354) IC50 for "CCCCCC1=CC(=O)C=C(OC)C1=N"
5820

(1) CCCCCc1cc(O)cc(OC)c1
(2) CCCCCCCCCCCc1cc(O)cc(OC)c1O
Short answer wanted: higher IC50, 1 or 2 ? // caller expects the label of the chosen entry
1
(1: 15900 nM, 2: 550 nM)

====

TARGET: Prostaglandin G/H synthase 1 (Ovis aries)
TEST: Competitive inhibition of ovine COX-1 assessed as reduction in PGE2 level using 1250 nM arachidonic acid as substrate preincubated with enzyme for 5 mins followed by substrate addition and measured after 20 mins by ELISA
pIC50: −log10 of the molar value.
QUANTITY: pIC50

What does the data say about its pIC50? Entry: "CCCCCCCCCCCC1=CC(=O)C=C(OC)C1=O"
< 4.70

====

TEST: Selectivity index, ratio of IC50 for ovine COX-1 to IC50 for human recombinant COX-2
QUANTITY: Ratio IC50

Consider the compound shown here: "CCCCCc1cc(O)cc(O)c1" What is its recorded Ratio IC50?
0.79

Please look up its Ratio IC50: "CCCCCCCCCCCCCCCc1cc(O)cc(OC)c1O"
0.98

Param item = "CCCCCC1=CC(=O)C=C(OC)C1=O" ; retrieve measured Ratio IC50.
9.96

Could you share which Ratio IC50 value was measured for "CCCCCC1=CC(=O)C=C(OC)C1=N" ?
2.71

# lookup: Ratio IC50 of "COc1cc(O)cc(Br)c1O"
1.27

(I) CCCCCCCCCCCC1=CC(=O)C=C(OC)C1=O
(II) CCCCCc1cccc(OC)c1O
(III) COC1=CC(=O)C=C(Br)C1=O
# rank_down: sort by Ratio IC50, max first Labels, requested order.
III, I, II
(III: 3.47, I: 1.88, II: 1.17)

====

We begin with a simple list: items and their reported inhibition.
TARGET: Prostaglandin G/H synthase 1 (Ovis aries)
TEST: Inhibition of ovine COX-1 assessed as reduction in PGE2 level using 10 uM arachidonic acid as substrate at 20 uM preincubated with enzyme for 5 mins followed by substrate addition and measured after 20 mins by ELISA relative to control
TEST_CONTEXT: time 25.0 min

Query: inhibition; subject: COC1=CC(=O)C=C(Br)C1OC(C)=O (stereo unspecified)
< 50%

Record request: inhibition value, item "CCCCCc1cc(OC(C)=O)cc(OC)c1OC(C)=O"
< 50%

New cases:
For the compound "CCCCCCCCCCCCCCCC1=CC(=O)C=C(OC)C1=O" , what inhibition is on record?
< 50%

Recorded inhibition for "CCCCCc1cc(O)cc(OC)c1" , please?
< 50%

Would you kindly share the measured inhibition for "CCCCCc1cc(O)cc(OC)c1O" ?
< 50%

Quick check: inhibition of "CCCCCCCCCCCCCc1cc(OC(C)=O)cc(OC)c1OC(C)=O" ?
< 50%

====

TARGET: Polyunsaturated fatty acid 5-lipoxygenase (Homo sapiens, UniProt P09917)
Sequence (P09917 whole entry): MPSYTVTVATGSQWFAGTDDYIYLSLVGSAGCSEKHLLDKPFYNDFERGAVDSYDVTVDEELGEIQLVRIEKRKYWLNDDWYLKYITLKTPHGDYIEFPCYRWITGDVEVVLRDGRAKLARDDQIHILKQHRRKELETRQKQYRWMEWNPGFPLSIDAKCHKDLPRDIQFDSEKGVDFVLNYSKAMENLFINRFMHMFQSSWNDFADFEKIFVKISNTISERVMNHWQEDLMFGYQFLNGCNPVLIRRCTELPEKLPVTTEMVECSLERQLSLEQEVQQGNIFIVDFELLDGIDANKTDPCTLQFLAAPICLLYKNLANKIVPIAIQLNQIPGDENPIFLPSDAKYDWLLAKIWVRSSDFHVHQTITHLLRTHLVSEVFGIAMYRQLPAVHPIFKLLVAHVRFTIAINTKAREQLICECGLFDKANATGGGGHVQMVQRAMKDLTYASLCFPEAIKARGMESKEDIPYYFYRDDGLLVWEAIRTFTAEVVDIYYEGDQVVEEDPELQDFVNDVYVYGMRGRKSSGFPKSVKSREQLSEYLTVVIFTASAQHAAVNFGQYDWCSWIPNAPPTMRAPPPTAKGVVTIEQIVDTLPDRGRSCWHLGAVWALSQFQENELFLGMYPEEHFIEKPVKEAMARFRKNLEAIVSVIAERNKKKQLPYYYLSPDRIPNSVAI
TEST: Inhibition of human recombinant 5-LOX assessed as reduction in LTB4 level using 800 uM arachidonic acid as substrate preincubated with enzyme for 10 mins followed by substrate addition and measured after 10 mins by ELISA
QUANTITY: IC50 (nM)

What IC50 value was documented for this compound, "CCCCCCCCCCCCCCCC1=CC(=O)C=C(OC)C1=O" ?
790

Which IC50 value is on record for "CCCCCCCCCCCCCC1=CC(=O)C=C(OC)C1=O" ?
1050

Which IC50 value is on record for "CCCCCCCCCCCC1=CC(=O)C=C(OC)C1=O" ?
340

Param item = "CCCCCC1=CC(=O)C=C(OC)C1=N" ; retrieve measured IC50.
1010

For the compound "CCCCCCCCCCCCCCCc1cc(O)cc(OC)c1O" , what IC50 is on record?
140

I am curious: what IC50 value has been reported for "CCCCCc1cc(OC(C)=O)cc(OC)c1OC(C)=O" ?
1090

Form field: reported IC50 of "CCCCCCCCCCCc1cc(O)cc(OC)c1O"
280

# query: IC50 of entry CCCCCC1=CC(=O)C=C(OC)C1=O [Primin]
1370

For "COC1=CC(=O)C=C(Br)C1=O" , what is its reported IC50?
1670

Param item = "CCCCCCCCCCCCCc1cc(OC(C)=O)cc(OC)c1OC(C)=O" ; retrieve measured IC50.
1020

(1) CCCCCCCCCCCCCc1cc(O)cc(OC)c1O
(2) CCCCCc1cc(O)cc(OC)c1O
Which of the two items, 1 and 2 , has the greater recorded IC50? Please identify the chosen entry by its label.
1

====

TARGET: Prostaglandin G/H synthase 1 (Ovis aries, UniProt P05979)
TEST: Inhibition of ovine COX-1 assessed as reduction in PGE2 level using 10 uM arachidonic acid as substrate preincubated with enzyme for 5 mins followed by substrate addition and measured after 20 mins by ELISA
QUANTITY: IC50 (µM)

# count of solved cases: 5
Look up IC50: "CCCCCCCCCCCCCCCc1cc(O)cc(O)c1"
5.61

Which IC50 value belongs to "CCCCCCCCCCCCCc1cc(O)cc(OC)c1O" ?
3.38

Fill blank: measured IC50 of the molecule "CCCCCCCCCCCc1cc(O)cc(OC)c1O" is ____.
1.07

May I ask what IC50 has been recorded for "CCCCCCCCCCCCCc1cc(O)cc(O)c1" ?
2.38

GET /values?readout=IC50&item= "CCCCCc1cccc(OC)c1O"
5.42

(1) CCCCCCCCCCCCCC1=CC(=O)C=C(OC)C1=O
(2) CCCCCC1=CC(=O)C=C(OC)C1=N
Consider 1 and 2 . Which of these has its IC50 at a higher number? Kindly give the label for the entry you pick.
2
(2: 15.8 µM, 1: 0.25 µM)
